All values here come from PubChem BioAssay (NCI).

Catalogue of growth inhibition readings, one per entry.
- protocol: NCI Yeast Anticancer Drug Screen. Data for the rad50 strain (AID 155);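 further: 0% = growth of vehicle-only cultures of the same strain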
- details: S. cerevisiae rad50 strain growth inhibition; at 50.0 µM; active compounds read high
This is part of a sample that, as a whole, favours compounds with a hit. Of some 79,000 tested, about 15% had one in any assay. Calls of active or inactive are those of the source. No stated cut-off is given here; in the data, active means growth inhibition above about 70%; inactive means the rest.

Example cases with answers are listed next.
molecule | growth inhibition
O=C1OC(/C=C/c2ccccc2)=NC/1=C\c1ccccc1Cl | 29.8% (inactive)
CC(=O)c1c(C)cc2cccc(OC3OC(CO)C(O)C(O)C3O)c2c1O (stereo not given) (tested in a mixture with another compound) | 9.1% (inactive)

Incoming: Any idea what its growth inhibition is? The molecule is COc1ccc(/C=N/N2CCN(/N=C/c3ccc(OC)c(O)c3)CC2)cc1O
Outgoing: 22.1% (inactive)

Incoming: Return reported growth inhibition; argument: COc1ccc(C=C(c2ccc(OCc3ccccc3)cc2)c2ccc(OCc3ccccc3)cc2)cc1
Outgoing: 13.2% (inactive)

Incoming: growth inhibition for CCOC(=O)/C(C#N)=C(\C)c1ccc(O)c(OC)c1 ?
Outgoing: 11.4% (inactive)
